Target: TGF-β1-α2M* complex (Homo sapiens)
Construct: was purified from pooled citrate-treate human plasma
Sequence (P01023 24-1474, one chain of several): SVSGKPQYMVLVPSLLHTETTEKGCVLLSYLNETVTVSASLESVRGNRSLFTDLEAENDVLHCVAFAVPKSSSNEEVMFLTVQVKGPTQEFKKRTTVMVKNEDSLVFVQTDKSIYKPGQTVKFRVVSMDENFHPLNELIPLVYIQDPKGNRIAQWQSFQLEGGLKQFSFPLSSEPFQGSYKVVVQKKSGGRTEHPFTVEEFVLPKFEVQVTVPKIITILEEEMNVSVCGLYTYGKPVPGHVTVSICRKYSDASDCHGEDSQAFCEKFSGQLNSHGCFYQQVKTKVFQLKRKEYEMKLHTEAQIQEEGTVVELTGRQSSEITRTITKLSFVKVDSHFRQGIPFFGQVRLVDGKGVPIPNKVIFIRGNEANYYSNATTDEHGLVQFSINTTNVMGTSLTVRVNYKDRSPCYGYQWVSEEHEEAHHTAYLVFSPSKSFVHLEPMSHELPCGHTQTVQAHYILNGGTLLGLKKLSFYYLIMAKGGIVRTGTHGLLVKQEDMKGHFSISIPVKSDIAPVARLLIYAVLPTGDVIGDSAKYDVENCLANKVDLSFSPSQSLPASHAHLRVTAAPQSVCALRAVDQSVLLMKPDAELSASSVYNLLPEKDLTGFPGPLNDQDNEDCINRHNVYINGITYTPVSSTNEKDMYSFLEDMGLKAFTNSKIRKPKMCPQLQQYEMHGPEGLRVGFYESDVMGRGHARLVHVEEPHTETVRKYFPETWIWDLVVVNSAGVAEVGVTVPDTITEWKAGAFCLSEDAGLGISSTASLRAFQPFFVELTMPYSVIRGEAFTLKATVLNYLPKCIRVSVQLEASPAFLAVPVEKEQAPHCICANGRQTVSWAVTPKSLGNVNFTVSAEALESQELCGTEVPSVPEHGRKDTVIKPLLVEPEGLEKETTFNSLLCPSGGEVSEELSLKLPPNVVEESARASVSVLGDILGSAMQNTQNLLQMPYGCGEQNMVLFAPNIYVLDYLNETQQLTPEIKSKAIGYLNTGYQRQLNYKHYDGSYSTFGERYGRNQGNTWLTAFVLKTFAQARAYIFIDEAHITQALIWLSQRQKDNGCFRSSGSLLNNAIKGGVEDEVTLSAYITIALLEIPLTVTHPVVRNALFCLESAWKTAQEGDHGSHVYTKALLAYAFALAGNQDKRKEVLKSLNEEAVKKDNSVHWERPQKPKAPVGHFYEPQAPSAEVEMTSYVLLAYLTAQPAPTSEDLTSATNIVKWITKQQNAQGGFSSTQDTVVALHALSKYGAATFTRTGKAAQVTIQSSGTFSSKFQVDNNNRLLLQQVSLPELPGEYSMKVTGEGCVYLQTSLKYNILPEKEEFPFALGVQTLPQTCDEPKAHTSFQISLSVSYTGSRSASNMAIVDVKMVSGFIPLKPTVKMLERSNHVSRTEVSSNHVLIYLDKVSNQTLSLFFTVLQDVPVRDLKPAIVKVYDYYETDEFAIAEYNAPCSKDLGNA
Assay: Inhibition of 125I-TGF-β1 and α2M* complex formation (5% non-denaturing PAGE, autoradiography)
Details: ~1 nM 125I-TGF-β1, 10 μg α2M* in 0.05 ml, 30 min room temperature, non-denaturing PAGE; read-out: IC50 for inhibiting complex formation between TGF-β1 and α2M*
Protocol: Saturated and unsaturated fatty acids are present in plasma and tissues (25,26). The effects of various concentrations of saturated fatty acids on the formation of complexes between ^125I-TGF ? β1 and ? 2M* were examined. ^125I-TGF- ? […] After 30 min at room temperature, the reaction mixture was analyzed by 5% non-denaturing PAGE and autoradiography, a standard method form determining complex formation between TGF-β and α2M* (12). […]
Endpoint: IC50 (µM)

Look over these answered cases.
{"Query smiles": "CCCCCCCCCCCCCCCCCC(=O)O", "Display unit": "µM", "Value measured": 6.6}
{"Query smiles": "CCCCC/C=C\\C/C=C\\C/C=C\\C/C=C\\CCCC(=O)O", "Display unit": "µM", "Value measured": 7.8}

a: CCCCCCCCCCCCCCCC(=O)O
b: CCCCCC=CCC=CCC=CCC#CCCCC(=O)O
c: CCCCCCCCCCCC(=O)O
Ask: Sequence the entries by IC50, beginning with the highest number. Answer with the labels in sequence, matching the requested order.
Result: c, b, a
